Molecular target: T1, human iRhom2 (inactive rhomboid protein 2, isoform 1), endogenously expressed on human cells (human, UniProt Q6PJF5 1-856)
T1 sequence: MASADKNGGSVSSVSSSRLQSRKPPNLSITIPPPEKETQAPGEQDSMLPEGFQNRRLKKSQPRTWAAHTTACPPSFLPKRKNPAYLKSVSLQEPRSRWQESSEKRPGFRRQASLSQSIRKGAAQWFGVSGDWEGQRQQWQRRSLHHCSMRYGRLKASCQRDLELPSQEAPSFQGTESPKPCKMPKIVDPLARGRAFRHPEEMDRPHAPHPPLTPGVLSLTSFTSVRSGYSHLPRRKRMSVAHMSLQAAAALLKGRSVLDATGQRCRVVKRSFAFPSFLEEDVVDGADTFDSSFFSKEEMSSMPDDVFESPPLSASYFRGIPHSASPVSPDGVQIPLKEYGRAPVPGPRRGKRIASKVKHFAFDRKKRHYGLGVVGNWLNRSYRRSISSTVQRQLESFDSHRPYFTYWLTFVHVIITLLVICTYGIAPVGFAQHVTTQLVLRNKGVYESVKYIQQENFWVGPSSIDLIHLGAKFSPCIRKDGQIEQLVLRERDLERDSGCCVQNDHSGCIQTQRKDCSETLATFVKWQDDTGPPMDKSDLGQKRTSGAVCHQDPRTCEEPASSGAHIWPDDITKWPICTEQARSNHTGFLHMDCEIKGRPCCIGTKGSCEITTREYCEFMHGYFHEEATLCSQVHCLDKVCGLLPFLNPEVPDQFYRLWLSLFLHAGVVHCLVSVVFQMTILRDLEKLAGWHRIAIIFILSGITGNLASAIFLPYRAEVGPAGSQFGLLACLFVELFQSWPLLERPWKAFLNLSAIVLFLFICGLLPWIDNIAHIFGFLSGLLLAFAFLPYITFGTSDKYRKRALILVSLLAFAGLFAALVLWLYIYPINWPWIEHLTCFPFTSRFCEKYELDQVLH
Test: cell-based or functional assay
Would you kindly list inhibition of PMA-induced release of IL-6R from THP-1 cells, 1 µg/ml for each of these binders?
Numbers only here, please. The scale is % inhibition.

In: Requested read-out: inhibition of PMA-induced release of IL-6R from THP-1 cells, 1 µg/ml. Entry: antibody 22 (antibody, V domains shown, Mouse IgG, kappa light chain; also called clone #22; m22) VH: QVTLKESGPGILQPSQTLSLTCSFSGFSLSTFGMGVGWIRQPSGKGLEWLAHIWWDDEKYYNSALKSRLTISKATSKNQVFLKIANVDTADTATYYCARISNYGSNYWYFNVWGTGTTVTVSS VL: QVVLTQSPALMSASPGEKVTMTCSAGSSVSYMYWYQQKPGSSPRVLIYDTSNLASGVPARFTGSGSGTSYSLTISRMEAEDAATYYCQQWNSYPLTFGAGTKLELK
Out: 67.4

In: Requested read-out: inhibition of PMA-induced release of IL-6R from THP-1 cells, 1 µg/ml. Entry: antibody 5 (antibody, V domains shown, Mouse IgG, kappa light chain; also called clone #5; purified antibody 5) VH: QVTLKESGPGILQPSQTLSLTCSFSGFSLSTFGMGVGWIRQPSGKGLEWLAHIWWDDEKYYNSALKSRLTISKATSKNQAFLKIANVDTADTATYYCARISNYGSNYWYFNVWGTGTTVTVSS VL: QVVLTQSPALMSASPGEKVTMTCSAGSSVSCMYWYQQKPGSSPRVLIYDTSNLASGVPARFTGSGSGTSYSLTISRMEAEDAASYYCQQWNSYPLTFGAGTKLELK
Out: 64.1

In: Requested read-out: inhibition of PMA-induced release of IL-6R from THP-1 cells, 1 µg/ml. Entry: antibody 44 (antibody, V domains shown, Mouse IgG, kappa light chain; also called clone #44; m44) VH: QVTLKESGPGILQPSQTLSLTCSFSGFSLSTFGMGVGWIRQPSEKGLEWLAHIWWDDDKYYNPALKSRLTISKDTSKNQIFLKITNVDTAETATYYCSRIGNYGSNYWYFDVWGTGTTVTVSS VL: QIVLTQSPAVMSASPGEKVTMTCTASSSVYYMYWYQQTPGSSPRLLIYDTSNLASGVPVRFSGSGSGTSYSLTISRMEAEDAATYYCQQWNTYPLTFGAGTKLELK
Out: 73
